TARGET_OR_TEST_SYSTEM: T1, human CTLA4 (soluble analyte of the Biacore assays of Reference Example 3-3) (human, UniProt P16410 36-161)
T1 construct: also called hCTLA4
T1 sequence: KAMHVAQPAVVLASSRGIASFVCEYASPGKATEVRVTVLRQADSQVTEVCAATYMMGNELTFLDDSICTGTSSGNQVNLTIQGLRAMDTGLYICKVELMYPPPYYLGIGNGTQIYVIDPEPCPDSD
TEST_PROTOCOL: SPR, 1000 nM CTLA4, per unit antibody, no ATP
Reported Binding to Human CTLA4 by item:
Lab note: record just the number, no unit beside it.

Solved cases (2 shown):
BINDER: 04H1077-G1m/04L1034-lam1 (antibody, human IgG1, lambda, V domains shown) VH: EVQLVESGGDLVKPGGGLRLSCAASGFTFSSRTMNWVRQAPGKGLEWVSSISTRSGYIYYAESVKGRFTISRDNAKNSLYLQMNSLRAEDTAVYYCARYGKREDMLWVFDYWGQGTLVTVSS VL: QSALTQPPSASGSPGQTVTISCDGPSTDVGDYNWVSWYQQHPGKAPKLMIYFTSKKPSGVPDRFSGSKSGNTASLTVSGLQAEDEADYFCSTYAAPLGPMFGGGTKLTVLG
Binding to Human CTLA4: 0.004

BINDER: 04H1077-G1m/04L1066-lam1 (antibody, human IgG1, lambda, V domains shown) VH: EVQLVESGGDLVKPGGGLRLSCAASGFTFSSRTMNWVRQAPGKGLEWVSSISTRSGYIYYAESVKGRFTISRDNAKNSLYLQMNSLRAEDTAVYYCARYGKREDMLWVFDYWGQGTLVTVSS VL: QSALTQPPSASGSPGQTVTISCDGPSTDVGDYNWVHWYQQHPGKAPKLMIYFTSKKPSGVPDRFSGSKSGNTASLTVSGLQAEDEADYFCSTYAAPLGPMFGGGTKLTVLG
Binding to Human CTLA4: 0.02

Moving on to the next binder.
I have this binder here, 04H1077-G1m/04L1086-lam1 (antibody, human IgG1, lambda, V domains shown) VH: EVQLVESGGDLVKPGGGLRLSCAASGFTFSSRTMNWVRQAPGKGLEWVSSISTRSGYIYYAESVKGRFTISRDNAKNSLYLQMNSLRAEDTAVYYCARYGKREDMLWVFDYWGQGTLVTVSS VL: QSALTQPPSASGSPGQTVTISCDGPSTGVGDYNYVHWYQQHPGKAPKLMIYFTSKKPSGVPDRFSGSKSGNTASLTVSGLQAEDEADYFCQTYAAPLGPMFGGGTKLTVLG , and I need its recorded Binding to Human CTLA4.
0.01

Origin of values: patent EP4361176A1
